// provenance: patent US10316017B2

experimentalSystem: human Cot catalytic domain (30-397 amino acids) (Homo sapiens)
Construct: Purified recombinant human Cot catalytic domain (30-397 amino acids) was purchased from Cama Biosciences; purchased Cama Biosciences (so in the source)
experiment: High Throughput Cot Biochemical Assay (KinEASE TR-FRET)
experimentalConditions: Cot biochemical HTRF (KinEASE TR-FRET) assay; read-out: IC50 HTRF
endpointName: IC50 (nM)

Please review the entries below; each comes with its answer.
> print(dat)
                                   molecule  endpointresult
1  CC(=O)N(C)c1cccc([C@H](Nc2cc(Cl)c3ncc(C#N)c(Nc4ccc(F)c(Cl)c4)c3c2)c2cn(C3CCN(C(C)(C)C)CC3)nn2)c1               1
2  CN(C)C1CN(C(=O)c2cccc([C@H](Nc3cc(Cl)c4ncc(C#N)c(Nc5ccc(F)c(Cl)c5)c4c3)c3cn(C4CCN(C(C)(C)C)CC4)nn3)c2)C1               5
3  N#Cc1cnc2c(Cl)cc(N[C@@H](c3ccccc3)c3cn(CC(F)F)nn3)cc2c1Nc1ccc(F)c(Cl)c1              39
4  N#Cc1cnc2c(Cl)cc(N[C@@H](c3ccc(F)cc3)c3c[nH]nn3)cc2c1Nc1cnc(F)c(F)c1              22
5  CCC(Nc1c(C#N)cnc2c(Cl)cc(N[C@@H](c3ccccc3)c3cn(C4CCN(C(C)(C)C)CC4)nn3)cc12)C1CCOCC1 (stereo partly drawn)            5350
6  CN(C)Cc1ccc(Nc2c(C#N)cnc3c(Cl)cc(N[C@@H](c4ccc(Cl)cc4)c4cn(C5CCN(C(C)(C)C)CC5)nn4)cc23)cc1            7350

1 = N#Cc1ccc([C@H](Nc2cc(Cl)c3ncc(C#N)c(Nc4cnc(F)c(F)c4)c3c2)c2c[nH]nn2)cc1
2 = Cn1ccc(CNc2c(C#N)cnc3c(Cl)cc(N[C@@H](c4ccccc4)c4cn(C5CCN(C(C)(C)C)CC5)nn4)cc23)n1
Choose between 1 and 2 : whose measured IC50 value is numerically larger? Provide the label of your selected option as the answer.
2

I = CC(C)(C)N1CCC(n2cc([C@@H](Nc3cc(Cl)c4ncc(C#N)c(Nc5cc(F)cc(F)c5)c4c3)c3ccc(Cl)cc3)nn2)CC1
II = Cn1cc(Nc2c(C#N)cnc3c(Cl)cc(N[C@@H](c4ccccc4)c4c[nH]nn4)cc23)ccc1=O
III = CC(C)(C)N1CCC(n2cc([C@@H](Nc3cc(Cl)c4ncc(C#N)c(Nc5cc(Cl)cc(Cl)c5)c4c3)c3ccc(Cl)cc3)nn2)CC1
Thanks in advance: please rank these 3 entries by IC50, highest to lowest. Please, when replying, give the labels in the order that was requested.
II, III, I

a = N#Cc1cnc2c(Cl)cc(N[C@@H](c3ccccc3)c3cn(CCN4CCOCC4)nn3)cc2c1Nc1ccc(F)c(Cl)c1
b = N#Cc1cccc([C@H](Nc2cc(Cl)c3ncc(C#N)c(Nc4cnc(F)c(F)c4)c3c2)c2c[nH]nn2)c1
Choose between a and b : whose measured IC50 value is numerically larger? Provide the label of your selected option as the answer.
a
(a: 21 nM, b: 6 nM)

----------
System: TNFα production in LPS-stimulated human monocytes
experiment: Cot Monocyte TNFα Cell Based Assay
experimentalConditions: Homo sapiens, Monocyte, LPS-stimulated human monocytes, TNFα TR-FRET; read-out: EC50 TNF
Measured EC50 of individual entries

Please review the entries below; each comes with its answer.
> print(dat)
                                   compound  endpointresult
1  Cc1c(-c2ccn(C)n2)cccc1[C@H](Nc1cc(C#N)c2ncc(C#N)c(NCC(C)(C)C)c2c1)c1cn(C2(C(F)(F)F)CC2)nn1 [Example 1143]        0.239 µM
2  CNC(=O)c1cc([C@H](Nc2cc(Cl)c3ncc(C#N)c(NCC(C)(C)C)c3c2)c2cn(C3(C(F)(F)F)CC3)nn2)ccc1F [Example 1116]          ≥ 1 µM
3  Cc1c([C@H](Nc2cc(C#N)c3ncc(C#N)c(NCC(C)(C)C)c3c2)c2cn(C3(C(F)(F)F)CC3)nn2)cccc1-n1cnnc1 [Example 1072]          ≥ 1 µM

Field: next compound
Reported EC50 for CC(C)(C)CNc1c(C#N)cnc2c(C#N)cc(N[C@H](c3cn(C4(C(N)=O)CCOCC4)nn3)c3ccccc3Cl)cc12 [Example 1023] was ≥ 1 µM

----------
experimentalSystem: human Cot catalytic domain (30-397 amino acids) (Homo sapiens, UniProt P41279)
Construct: Purified recombinant human Cot catalytic domain (30-397 amino acids) was purchased from Cama Biosciences; purchased Cama Biosciences (so in the source)
Sequence (P41279 30-397): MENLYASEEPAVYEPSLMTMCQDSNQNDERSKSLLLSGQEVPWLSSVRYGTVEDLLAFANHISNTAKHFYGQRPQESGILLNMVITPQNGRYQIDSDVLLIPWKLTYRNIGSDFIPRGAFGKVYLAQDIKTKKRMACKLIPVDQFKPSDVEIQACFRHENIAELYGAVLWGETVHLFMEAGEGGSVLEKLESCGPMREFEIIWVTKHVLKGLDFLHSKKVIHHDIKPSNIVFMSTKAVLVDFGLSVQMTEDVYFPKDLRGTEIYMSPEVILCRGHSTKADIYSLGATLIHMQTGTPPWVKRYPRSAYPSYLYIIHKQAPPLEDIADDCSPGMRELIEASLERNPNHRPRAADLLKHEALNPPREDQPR
experiment: High Throughput Cot Biochemical Assay (KinEASE TR-FRET)
experimentalConditions: Cot KinEASE TR-FRET (HTRF) biochemical assay, 400 μM ATP; read-out: IC50 HTRF
From the text: Example 61: High Throughput Cot Biochemical Assay In this assay, Cot-catalyzes the phosphorylation of a XL665-labeled peptide substrate. Europium conjugated phospho-tyrosine specific antibody binds the resulting phosphorylated peptide. […] Purified recombinant human Cot catalytic domain (30-397 amino acids) was purchased from Cama Biosciences. […]
endpointName: IC50 (nM)

Please review the entries below; each comes with its answer.
> print(dat)
                                   molecule  endpointresult
1  CC(C)(C)CNc1c(C#N)cnc2c(Br)cc(N[C@@H](c3cccc(C(N)=O)c3)c3cn(C4CC4)nn3)cc12 [Example 54]               2
2  [2H][C@](Nc1cc(Cl)c2ncc(C#N)c(NCC(C)(C)C)c2c1)(c1cn(C(C)(C)C)nn1)c1ccccc1Cl [Example 109]              17
3  [2H][C@](Nc1cc(Cl)c2ncc(C#N)c(NC3CCCC3(C)C)c2c1)(c1ccc(F)cc1)c1cn(C2CC2)nn1 (stereo partly drawn) [Example 189]              10
4  [2H][C@](Nc1cc(Cl)c2ncc(C#N)c(N[C@@H]3CCCC[C@H]3CO)c2c1)(c1ccc(F)cc1)c1cn(C2CC2)nn1 [Example 235]             605

1 = N#Cc1cnc2c(Cl)cc(N[C@@H](c3ccc(F)cc3)c3cn(C4CC4)nn3)cc2c1NC(CC(F)(F)F)c1ccccc1 (stereo partly drawn) [Example 347]
2 = [2H][C@](Nc1cc(Cl)c2ncc(C#N)c(Nc3cnc(F)c(F)c3)c2c1)(c1ccc(F)cc1)c1cn(Cc2ccccc2)nn1 [Example 342]
Select the item whose IC50 value is smaller, choosing between 1 and 2 . Provide the label of your selected option as the answer.
1
(1: 24 nM, 2: 64 nM)

----------
experimentalSystem: human Cot catalytic domain (30-397 amino acids) (Homo sapiens, UniProt P41279)
Construct: Purified recombinant human Cot catalytic domain (30-397 amino acids) was purchased from Cama Biosciences; purchased Cama Biosciences (so in the source)
experiment: High Throughput Cot Biochemical Assay (KinEASE TR-FRET)
experimentalConditions: Cot KinEASE TR-FRET, 400 μM ATP; read-out: IC50 HTRF
pIC50: −log10 of the molar value.
endpointName: pIC50

> print(dat)
                                   molecule  endpointresult
1  CC(C)(C)CNc1c(C#N)cnc2c(Cl)cc(N[C@@H](c3ccc(F)cc3)c3cn(C4(C)CC4)nn3)cc12 [Example 990]            7.92
2  CC(C)(C)CNc1c(C#N)cnc2c(C#N)cc(N[C@@H](c3ccccc3)c3cn(C4(C(N)=O)CC4)nn3)cc12 [Example 975]            8.52

A = Cc1c([C@H](Nc2cc(Cl)c3ncc(C#N)c(NCC(C)(C)C)c3c2)c2cn(C3(C(F)(F)F)CC3)nn2)cccc1-n1ccnn1 [Example 1063]
B = Cc1c(C#N)cccc1[C@H](Nc1cc(C#N)c2ncc(C#N)c(NCC(C)(C)C)c2c1)c1cn(C2(C)CC2)nn1 [Example 1148]
C = CC(C)(C)CNc1c(C#N)cnc2c(C#N)cc(N[C@@H](c3ccccc3)c3cn(C4(C(F)(F)F)CC4)nn3)cc12 [Example 1065]
Thanks in advance: please rank these 3 entries by pIC50, highest to lowest. Please, when replying, give the labels in the order that was requested.
B, A, C
(B: 8.70, A: 8.22, C: 7.66)

----------
experimentalSystem: human Cot catalytic domain (30-397 amino acids) (Homo sapiens, UniProt P41279)
Construct: Purified recombinant human Cot catalytic domain (30-397 amino acids) was purchased from Cama Biosciences; purchased Cama Biosciences (so in the source)
experiment: High Throughput Cot Biochemical Assay (KinEASE TR-FRET)
experimentalConditions: Cot KinEASE TR-FRET (HTRF) biochemical assay, 400 μM ATP; read-out: IC50 HTRF
pIC50: −log10 of the molar value.
endpointName: pIC50

Please review the entries below; each comes with its answer.
> print(dat)
                                   compound  endpointname  endpointresult
1  [2H]C(Nc1cc(Cl)c2ncc(C#N)c(N[C@H](CCN3CCOCC3)c3ccccc3)c2c1)(c1ccc(F)cc1)c1cn(C2CC2)nn1 (stereo partly shown)         pIC50            7.89
2  [2H][C@](Nc1cc(Cl)c2ncc(C#N)c(NC(CC)Cc3ccccc3)c2c1)(c1ccc(F)cc1)c1cn(C2CC2)nn1 (stereo partly shown)         pIC50            6.55

I = [2H][C@](Nc1cc(-c2ccc(NC(C)=O)cc2)c2ncc(C#N)c(NCC(C)(C)C)c2c1)(c1ccc(F)cc1)c1cn(C2CC2)nn1
II = N#Cc1cnc2c(Cl)cc(N[C@@H](c3ccc(F)cc3)c3c[nH]nn3)cc2c1Nc1ccc(F)cc1F
III = [2H][C@](Nc1cc(Cl)c2ncc(C#N)c(N[C@H](CCC#N)c3ccccc3)c2c1)(c1ccc(F)cc1)c1cn(C2CC2)nn1
IV = [2H]C(Nc1cc(Cl)c2ncc(C#N)c(N[C@H](CC)c3ccccc3)c2c1)(c1ccc(F)cc1)c1cn(C2CC2)cn1 (stereo partly shown)
V = [2H][C@](Nc1cc(Cl)c2ncc(C#N)c(NCC3(C(F)F)CCC3)c2c1)(c1ccc(F)cc1)c1cn(C2CC2)nn1
Thanks in advance: please rank these 5 entries by pIC50, highest to lowest. Please, when replying, give the labels in the order that was requested.
III, V, IV, II, I
